Molecular target: human RORγt LBD (Homo sapiens (Human), UniProt P51449)
Sequence (P51449 258-518): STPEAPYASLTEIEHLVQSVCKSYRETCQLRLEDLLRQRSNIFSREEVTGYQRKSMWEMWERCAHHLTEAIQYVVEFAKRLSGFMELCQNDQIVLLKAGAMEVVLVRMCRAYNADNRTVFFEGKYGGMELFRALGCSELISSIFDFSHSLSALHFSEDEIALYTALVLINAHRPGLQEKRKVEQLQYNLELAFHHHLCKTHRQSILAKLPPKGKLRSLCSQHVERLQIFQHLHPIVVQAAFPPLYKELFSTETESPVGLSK
Experiment: RORγt Reporter Assay
Type: cell-based
Details: HEK-293T, read-out: RORγt reporter Assay, % inhibition @ 6 μM, HEK293T cells, 6 μM
REPORTED_ENDPOINT: inhibition at 6 µM (%)

molecule="C#CC(O)(c1ccc2nc(OC)c(Cc3ccc(C(F)(F)F)cc3)c(Cl)c2c1)C1CN(C(=O)OC(C)(C)C)C1 (stereo not drawn)" output_unit=% measurement=71
molecule="COc1nc2ccc(C(C)(O)c3oc(C)nc3C)cc2c(Cl)c1Cc1ccc(C(F)(F)F)cc1 (single isomer, unassigned) [Example 10a]" output_unit=% measurement=101
molecule="CCC(O)(c1ccc2nc(OC)c(Cc3ccc(C(F)(F)F)cc3)c(Cl)c2c1)C1CN(C(=O)OC(C)(C)C)C1 (stereo not drawn)" output_unit=% measurement=98
molecule="COc1nc2ccc(C(C)(O)c3ccc(C)nc3C)cc2c(Cl)c1Cc1ccc(C(F)(F)F)cc1 (single isomer, unassigned) [Example 13b]" output_unit=% measurement=101
molecule="Cc1nc(C)c(C(O)(c2ccc3nc(Cl)c(-c4ccccc4)c(Cl)c3c2)C(C)C)s1 (stereo not drawn)" output_unit=% measurement=99
molecule="COc1nc2ccc(C(C)(O)c3cnc(C)n3C)cc2c(Cl)c1Cc1ccc(C(F)(F)F)cc1 (stereo not drawn) [Example 12a]" output_unit=% measurement=99
molecule="COc1nc2ccc(C(C)(O)c3cnc(C)n3C)cc2c(Cl)c1Cc1ccc(C(F)(F)F)cc1 (single isomer, unassigned) [Example 12b]" output_unit=% measurement=102
molecule="C#CC(O)(c1ccc2nc(OC)c(Cc3ccc(C(F)(F)F)cc3)c(Cl)c2c1)C1CN(C(C)=O)C1 (stereo not drawn) [Example 7a]" output_unit=% measurement=95
molecule="CC(C)C(O)(c1ccc2nc(Cl)c(-c3ccccc3)c(Cl)c2c1)c1cncn1C (stereo not drawn)" output_unit=% measurement=118
molecule="C#CC(O)(c1ccc2nc(OC)c(Cc3ccc(C(F)(F)F)cc3)c(Cl)c2c1)C1CN(C(C)=O)C1 (single isomer, unassigned) [Example 7b]" output_unit=% measurement=97
molecule="Cn1cncc1C(O)(c1ccc2nc(Cl)c(-c3ccccc3)c(Cl)c2c1)C1CC1 (stereo not drawn)" output_unit=% measurement=56
molecule="COc1nc2ccc(C(C)(O)c3cnnn3C)cc2c(Cl)c1Cc1ccc(C(F)(F)F)cc1 (single isomer, unassigned) [Example 11b]" output_unit=% measurement=98
molecule="CCC(O)(c1ccc2nc(OC)c(Cc3ccc(S(C)(=O)=O)cc3)c(Cl)c2c1)c1cncn1C (stereo not drawn)" output_unit=% measurement=76
molecule="COc1nc2ccc(C(C)(O)c3cncn3C)cc2c(Cl)c1Cc1ccc(C(F)(F)F)cc1 (single isomer, unassigned) [Example 9b]" output_unit=% measurement=89
molecule="C#CC(O)(c1ccc2nc(OC)c(Cc3ccc(C(F)(F)F)cc3)c(Cl)c2c1)c1cnc(C)n1C (stereo not drawn) [Example 14a]" output_unit=% measurement=81
molecule="COc1nc2ccc(C(C)(O)c3cnnn3C)cc2c(Cl)c1Cc1ccc(C(F)(F)F)cc1 (stereo not drawn) [Example 11a]" output_unit=% measurement=102
molecule="CCCCC(O)(c1ccc2nc(Cl)c(-c3ccccc3)c(Cl)c2c1)c1cncn1C (stereo not drawn)" output_unit=% measurement=114
molecule="COc1nc2ccc(C(C)(O)c3ccc(C)nc3C)cc2c(Cl)c1Cc1ccc(C(F)(F)F)cc1 (stereo not drawn) [Example 13a]" output_unit=% measurement=103
molecule="COc1nc2ccc(C(C)(O)c3cncn3C)cc2c(Cl)c1Cc1ccc(C(F)(F)F)cc1 (stereo not drawn) [Example 9a]" output_unit=% measurement=98
molecule="COc1nc2ccc(C(C)(O)c3oc(C)nc3C)cc2c(Cl)c1Cc1ccc(C(F)(F)F)cc1 (single isomer, unassigned) [Example 10c]" output_unit=% measurement=95
molecule="C#CC(O)(c1ccc2nc(OC)c(Cc3ccc(C(F)(F)F)cc3)c(Cl)c2c1)c1cnc(C)n1C (single isomer, unassigned) [Example 14b]" output_unit=% measurement=84
